System: 276233-004-R-J1-PDC KRAS spheroids with HUVEC/MSC, viability;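 also: cells exposed to agents for seven days before viability read; 100% = DMSO vehicle control wells and lower values mean fewer viable cells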
run.description: Anticancer human tumor 276233-004-R-J1-PDC patient-derived colon adenocarcinoma cell line growth inhibition [KRAS2]
condition.context: second compound 0.1 µM; first compound 0.1 µM; hits give low values
readout: viability, T/C (%)
Number in %, nothing else.

Problem: For the compound Cn1ncnc1[C@H]1c2n[nH]c(=O)c3cc(F)cc(c23)N[C@@H]1c1ccc(F)cc1 + C=CC(=O)N1CCN(c2nc(=O)n(-c3c(C)ccnc3C(C)C)c3nc(-c4c(O)cccc4F)c(F)cc23)C(C)C1 , what viability, T/C is on record?
Result: 91.7

Problem: Now the same for Cn1ncnc1[C@H]1c2n[nH]c(=O)c3cc(F)cc(c23)N[C@@H]1c1ccc(F)cc1 + CNCc1ccccc1-c1csc(C(C)Nc2nc(C)nc3cc(OC)c(OC)cc23)c1
Result: 120

Problem: Now the same for CC1COCCN1c1cc(-c2ccnn2C)c2ccnc(-c3ccn[nH]3)c2n1 (stereo unspecified) + C=CC(=O)N1CCN(c2nc(OCC3CCCN3C)nc3c2CCN(c2cccc4cccc(C)c24)C3)CC1CC#N
Result: 94.6

Problem: Now the same for CC(=O)OC12COC1CC(O)C1(C)C(=O)C(O)C3=C(C)C(OC(=O)C(O)C(NC(=O)OC(C)(C)C)c4ccccc4)CC(O)(C(OC(=O)c4ccccc4)C21)C3(C)C (stereo unspecified) + CC1OCC2(CCN(c3cnc(Sc4ccnc(N)c4Cl)c(N)n3)CC2)C1N
Result: 60

Problem: Now the same for COc1cc2nccc(Oc3ccc(NC(=O)C4(C(=O)Nc5ccc(F)cc5)CC4)cc3)c2cc1OC + CNCc1ccccc1-c1csc(C(C)Nc2nc(C)nc3cc(OC)c(OC)cc23)c1
Result: 109

Problem: Now the same for O=C(c1cc(Cc2n[nH]c(=O)c3ccccc23)ccc1F)N1CCN(C(=O)C2CC2)CC1 + C=CC(=O)N1CCN(c2nc(OCC3CCCN3C)nc3c2CCN(c2cccc4cccc(C)c24)C3)CC1CC#N
Result: 109

Problem: Now the same for CC1COCCN1c1cc(-c2ccnn2C)c2ccnc(-c3ccn[nH]3)c2n1 (stereo unspecified) + CC1OCC2(CCN(c3cnc(Sc4ccnc(N)c4Cl)c(N)n3)CC2)C1N
Result: 78.3

Problem: Now the same for COc1cc(Nc2ncc3c(n2)-c2ccc(Cl)cc2C(c2c(F)cccc2OC)=NC3)ccc1C(=O)O + C=CC(=O)N1CCN(c2nc(OCC3CCCN3C)nc3c2CCN(c2cccc4cccc(C)c24)C3)CC1CC#N
Result: 91.1

Problem: Now the same for CC1(C)CCC(CN2CCN(c3ccc(C(=O)NS(=O)(=O)c4ccc(NCC5CCOCC5)c([N+](=O)[O-])c4)c(Oc4cnc5[nH]ccc5c4)c3)CC2)=C(c2ccc(Cl)cc2)C1 + CNCc1ccccc1-c1csc(C(C)Nc2nc(C)nc3cc(OC)c(OC)cc23)c1
Result: 111

Problem: Now the same for CC(C)n1nc(-c2ccc3oc(N)nc3c2)c2c(N)ncnc21 + CNCc1ccccc1-c1csc(C(C)Nc2nc(C)nc3cc(OC)c(OC)cc23)c1
Result: 44.4

Problem: Now the same for O=C(c1cc(Cc2n[nH]c(=O)c3ccccc23)ccc1F)N1CCN(C(=O)C2CC2)CC1 + COc1cc2nc(C)nc(NC(C)c3cc(N)cc(C(F)(F)F)c3)c2cc1OC1CCOC1
Result: 102

Where these numbers come from: PubChem BioAssay AID1963873
